Just for reference, the supplement of paper PMC7840683 is where these values come from.

Measured LDH release cytotoxicity of individual entries
Tested on: HepaRG
Assay: LDH release cytotoxicity, % of total lysis control; higher = more cytotoxic
Settings: 10 µM; 48 h
ASSAY_ENDPOINT: LDH release cytotoxicity (%)

COMPOUND: COP(=O)(OC)OC(C)=CC(=O)N(C)C [Dicrotophos]
RESULT: -0.345
--
COMPOUND: N#CSCSC#N [Methylene bis(thiocyanate)]
RESULT: 0.525
--
COMPOUND: Nc1nc(=O)c2nc(CNc3ccc(C(=O)NC(CCC(=O)O)C(=O)O)cc3)cnc2[nH]1 (centres undefined) [Folic acid]
RESULT: -0.672
--
COMPOUND: COC(=O)NS(=O)(=O)c1ccc(N)cc1 [Asulam]
RESULT: -0.725
--
COMPOUND: CCOc1cc(Oc2ccc(C(F)(F)F)cc2Cl)ccc1[N+](=O)[O-] [Oxyfluorfen]
RESULT: -0.932
--
COMPOUND: Nc1cc(Cl)cc(C(=O)O)c1Cl [Chloramben]
RESULT: -0.217
--
COMPOUND: CCCCCOC(=O)c1ccccc1C(=O)OCCCCC [Dipentyl phthalate]
RESULT: 55.1
--
COMPOUND: c1ccc2[nH]c(-c3cscn3)nc2c1 [Thiabendazole]
RESULT: -0.856
--
COMPOUND: CCSC(=O)N1CCCCCC1 [Molinate]
RESULT: -1.34
--
COMPOUND: COCC(C)OCC(C)O (centres undefined) [Dipropylene glycol monomethyl ether]
RESULT: -0.852
--
COMPOUND: CN(CC(CC[N+]12CCC(C3CCCCC3)(CC1)CC2)c1ccc(Cl)c(Cl)c1)C(=O)c1cc(C(F)(F)F)cc(C(F)(F)F)c1 (centres undefined)
RESULT: 1.28
--
COMPOUND: COc1ccc(O)c(C(C)(C)C)c1 [2-tert-Butyl-4-methoxyphenol]
RESULT: 0.94
--
COMPOUND: Clc1ccc(Cl)cc1 [1,4-Dichlorobenzene]
RESULT: -0.586
--
COMPOUND: CCCOCC(=Nc1ccc(Cl)cc1C(F)(F)F)n1ccnc1 [Triflumizole]
RESULT: -0.414
--
COMPOUND: CCOP(=S)(OCC)Oc1cc(C)nc(C(C)C)n1 [Diazinon]
RESULT: -0.4
--
COMPOUND: Cc1cccc(N)c1 [3-Methylaniline]
RESULT: 0.339
--
COMPOUND: CCc1cc(SCc2sc(-c3ccc(C(F)(F)F)cc3)nc2CN2CCN(c3ccc(OC)cc3)CC2)ccc1OCC(=O)O
RESULT: 21
--
COMPOUND: Oc1ccc(C(c2ccc(O)cc2)(C(F)(F)F)C(F)(F)F)cc1 [Bisphenol AF]
RESULT: -1.57
--
COMPOUND: Cc1ccc(N)cc1N [2,4-Diaminotoluene]
RESULT: -1.56
--
COMPOUND: CC1(C)C(=O)N(Cl)C(=O)N1Cl [1,3-Dichloro-5,5-dimethylhydantoin]
RESULT: -0.243
--
COMPOUND: O=C(O)C(F)(F)C(F)(F)C(F)(F)C(F)(F)C(F)(F)F [Perfluorohexanoic acid]
RESULT: -0.342
--
COMPOUND: CCCCCCOC(=O)c1ccccc1C(=O)OCCCCCC [Dihexyl phthalate]
RESULT: 4.57
--
COMPOUND: CN(C)c1ccc(C(=C2C=CC(=[N+](C)C)C=C2)c2ccc(N(C)C)cc2)cc1 [Gentian Violet]
RESULT: 29.8
--
COMPOUND: C#CC1(O)CCC2C3CCC4=CC(=O)CCC4C3CCC21CC (centres undefined) [Levonorgestrel]
RESULT: -1.02
--
COMPOUND: COP(=S)(OC)SCN1C(=O)c2ccccc2C1=O [Phosmet]
RESULT: -1.14
--
COMPOUND: Cc1ccc([N+](=O)[O-])cc1 [4-Nitrotoluene]
RESULT: -0.236
--
COMPOUND: c1ccc2c(c1)oc1ccccc12 [Dibenzofuran]
RESULT: -0.829
--
COMPOUND: COc1cnc(OC)n2nc(NS(=O)(=O)c3c(OCC(F)F)cccc3C(F)(F)F)nc12 [Penoxsulam]
RESULT: -0.309
--
COMPOUND: CCCN(CCC)c1c([N+](=O)[O-])cc(C(C)C)cc1[N+](=O)[O-] [Isopropalin]
RESULT: -1.28
--
COMPOUND: CCNc1cccc(C)c1 [N-Ethyl-3-methylaniline]
RESULT: -0.509
--
COMPOUND: C=CCc1ccc2c(c1)OCO2 [Safrole]
RESULT: -2.27
--
COMPOUND: CCOC(=O)c1ccc(C2CCC(NCC(O)COc3ccc(O)c(NS(C)(=O)=O)c3)CC2)cc1 (centres undefined)
RESULT: -1.05
--
COMPOUND: CCCCOCCOCCO [2-(2-Butoxyethoxy)ethanol]
RESULT: -1.67
--
COMPOUND: Nc1ccc(-c2ccc(N)cc2)cc1 [Benzidine]
RESULT: 0.338
--
COMPOUND: Cc1oc2c(NC(=O)c3c(Cl)cccc3Cl)cccc2c1C(C)(C)O
RESULT: -0.5
--
COMPOUND: NC(=O)O [Ammonium carbamate]
RESULT: -1.92
--
COMPOUND: N#Cc1cccnc1 [3-Pyridinecarbonitrile]
RESULT: -2.26
--
COMPOUND: N#CC(CCc1ccc(Cl)cc1)(Cn1cncn1)c1ccccc1 (centres undefined) [Fenbuconazole]
RESULT: -0.281
--
COMPOUND: CC(C)(OOC(C)(C)c1ccccc1)c1ccccc1 [Dicumyl peroxide]
RESULT: -1.43
